tested on: MB9798 (efflux+ MB5919 Trans IMP1 plasmid); assay: microbe, parasite or virus in culture; assay type: cell-based, Pseudomonas aeruginosa; settings: MB9798, OprD+, efflux+, MB5919 Trans IMP1 plasmid (CL 5673)
This section presents compounds with their documented MIC values.
Express your answer in µg/mL, writing the number without its unit.

Task: # lookup: MIC of "CC(C)(O/N=C(\C(=O)N[C@@H]1C(=O)N2C(C(=O)[O-])=C(C[n+]3ccccc3)CS[C@H]12)c1csc(N)n1)C(=O)O"
Output: 256

New cases:
Task: # lookup: MIC of "C[C@@H](O)[C@H]1C(=O)N2C(C(=O)O)=C(SCCN=CN)C[C@H]12"
Output: 64

Task: # lookup: MIC of "CCN1CCN(C(=O)N[C@@H](C(=O)N[C@@H]2C(=O)N3[C@@H]2SC(C)(C)[C@@H]3C(=O)O)c2ccccc2)C(=O)C1=O"
Output: 4

###

target: NDM-1 (Klebsiella pneumoniae)
Sequence (C7C422 whole entry, looked up, species assumed): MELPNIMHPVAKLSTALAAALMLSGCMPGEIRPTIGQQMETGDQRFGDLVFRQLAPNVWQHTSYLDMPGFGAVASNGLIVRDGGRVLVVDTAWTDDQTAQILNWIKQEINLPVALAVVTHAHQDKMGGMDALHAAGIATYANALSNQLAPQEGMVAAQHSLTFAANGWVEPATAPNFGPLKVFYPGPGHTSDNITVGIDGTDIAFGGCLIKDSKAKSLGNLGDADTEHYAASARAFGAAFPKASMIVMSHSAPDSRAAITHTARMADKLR
pIC50: −log10 of the molar value.
Hi, to clarify the labels: y covers pIC50 from 9 upward, n covers anything below 9.

Task: Please tell me: is the compound CC1CC(CN)CCN1c1ccc(S(=O)(=O)NC[C@H](O)CN)c(S(N)(=O)=O)c1-c1nn[nH]n1 (stereo partly drawn) at or over 9 in terms of pIC50?
Output: n

Task: Please tell me: is the compound NC(=O)C1CCN(c2ccc(S(=O)(=O)N[C@@H]3CCNC3)c(S(N)(=O)=O)c2-c2nnn[nH]2)C1 (stereo partly drawn) at or over 9 in terms of pIC50?
Output: y

Task: Please tell me: is the compound "NC[C@@H](O)CNS(=O)(=O)c1ccc(N[C@H]2CCC[C@H]2N)c(-c2nn[nH]n2)c1S(N)(=O)=O" at or over 9 in terms of pIC50?
Output: n

Task: Please tell me: is the compound NCC=C1CCCN(c2ccc(S(=O)(=O)NC[C@H](O)CN)c(S(N)(=O)=O)c2-c2nn[nH]n2)C1 (single isomer, unassigned; isomer a) at or over 9 in terms of pIC50?
Output: n

Please examine the following record next.
Task: Please tell me: is the compound "NC[C@@H](O)CNS(=O)(=O)c1ccc(N2CC[C@H](N)C2)c(-c2nn[nH]n2)c1S(N)(=O)=O" at or over 9 in terms of pIC50?
Output: n

###

test system: Serratia marcescens expressing IMP-1 (CL5741); format: cell-based; conditions: with imipenem 1 μg/ml; 95% inhibition of bacterial growth
experimental.endpoint: CL5741 S. marcescens MITC95 IMP (µM)
Express your answer in µM, writing the number without its unit.

Task: # lookup: CL5741 S. marcescens MITC95 IMP of "NS(=O)(=O)c1c(S(=O)(=O)N[C@@H]2CCNC2)ccc(N2CCC(CCF)CC2)c1-c1nnn[nH]1"
Output: 3.13

Task: # lookup: CL5741 S. marcescens MITC95 IMP of "CN(C)[C@@H]1CCN(c2ccc(S(=O)(=O)N[C@@H]3CCNC3)c(S(N)(=O)=O)c2-c2nnn[nH]2)C1"
Output: 1.56

Task: # lookup: CL5741 S. marcescens MITC95 IMP of NC(=O)C1CCN(c2ccc(S(=O)(=O)N[C@@H]3CCNC3)c(S(N)(=O)=O)c2-c2nnn[nH]2)C1 (stereo partly shown)
Output: 1.56

Task: # lookup: CL5741 S. marcescens MITC95 IMP of "CN(C)CC1(O)CCN(c2ccc(S(=O)(=O)N[C@@H]3CCNC3)c(S(N)(=O)=O)c2-c2nnn[nH]2)CC1"
Output: 6.25

New cases:
Task: # lookup: CL5741 S. marcescens MITC95 IMP of "NC[C@@H](O)CNS(=O)(=O)c1ccc(N2CCC(n3ccnc3)CC2)c(-c2nnn[nH]2)c1S(N)(=O)=O"
Output: 0.78

Task: # lookup: CL5741 S. marcescens MITC95 IMP of CC1CC(CN)CCN1c1ccc(S(=O)(=O)NC[C@H](O)CN)c(S(N)(=O)=O)c1-c1nn[nH]n1 (stereo partly shown)
Output: 1.56

Task: # lookup: CL5741 S. marcescens MITC95 IMP of "N.NC[C@@H](O)CNS(=O)(=O)c1ccc(N2CCN(CC(=O)O)CC2)c(-c2nnn[nH]2)c1S(N)(=O)=O"
Output: 1.56

###

tested on: P. aeruginosa MB9798 (efflux+, IMP-1 plasmid); settings: efflux + (MB9798) strain; imipenem at 2 μg/mL; in the presence of a class A, C, D serine β-lactamase inhibitor closely related to relebactam
experimental.endpoint: MB9798 MITC95 P. aeruginosa uM Efflux WT

Consider the worked cases shown below.
Task: # lookup: MB9798 MITC95 P. aeruginosa uM Efflux WT of "NCC1=CCN(c2ccc(S(=O)(=O)NC[C@H](O)CN)c(S(N)(=O)=O)c2-c2nn[nH]n2)CC1"
Output: 1.56 µM

Task: # lookup: MB9798 MITC95 P. aeruginosa uM Efflux WT of "NC[C@H](N)CNS(=O)(=O)c1ccc(N2CCC(CO)CC2)c(-c2nnn[nH]2)c1S(N)(=O)=O"
Output: 3.13 µM

Task: # lookup: MB9798 MITC95 P. aeruginosa uM Efflux WT of "NC[C@@H](O)CNS(=O)(=O)c1ccc(N2CCCN(CCO)CC2)c(-c2nn[nH]n2)c1S(N)(=O)=O"
Output: 3.13 µM

Task: # lookup: MB9798 MITC95 P. aeruginosa uM Efflux WT of "NC[C@@H](O)CNS(=O)(=O)c1ccc(N2CC[C@@H](N)[C@H](F)C2)c(-c2nn[nH]n2)c1S(N)(=O)=O"
Output: 0.78 µM

Task: # lookup: MB9798 MITC95 P. aeruginosa uM Efflux WT of "NC[C@@H](O)CNS(=O)(=O)c1ccc(N2C[C@H]3CNC[C@H]3C2)c(-c2nn[nH]n2)c1S(N)(=O)=O"
Output: 12.50 µM

Task: # lookup: MB9798 MITC95 P. aeruginosa uM Efflux WT of "CN(C)[C@@H]1CCN(c2ccc(S(=O)(=O)N[C@@H]3CCNC3)c(S(N)(=O)=O)c2-c2nnn[nH]2)C1"
Output: 12.50 µM

Now for the compound whose MB9798 MITC95 P. aeruginosa uM Efflux WT we want.
Task: # lookup: MB9798 MITC95 P. aeruginosa uM Efflux WT of "C[C@H](CN)NS(=O)(=O)c1ccc(N2CCC(CO)CC2)c(-c2nnn[nH]2)c1S(N)(=O)=O"
Output: 1.56 µM

###

target: VIM-2 (Escherichia coli); assay: biochemical; conditions: CCF2-FA fluorescence assay; read-out: VIM2 IC50
pIC50: −log10 of the molar value.
Hi, to clarify the labels: T covers pIC50 from 8 upward, F covers anything below 8.

Known results for compounds:
Task: Please tell me: is the compound NC(=O)C1CCN(c2ccc(S(=O)(=O)N[C@@H]3CCNC3)c(S(N)(=O)=O)c2-c2nnn[nH]2)C1 (stereo partly shown) at or over 8 in terms of pIC50?
Output: T

Task: Please tell me: is the compound NCC1C2CCC1CN(c1ccc(S(=O)(=O)NC[C@H](O)CN)c(S(N)(=O)=O)c1-c1nn[nH]n1)C2 (stereo partly shown) at or over 8 in terms of pIC50?
Output: T

Task: Please tell me: is the compound "NC[C@@H](O)CNS(=O)(=O)c1ccc(N2CC[C@@H](CN)C2)c(-c2nn[nH]n2)c1S(N)(=O)=O" at or over 8 in terms of pIC50?
Output: F

Task: Please tell me: is the compound NC[C@@H](O)CNS(=O)(=O)c1ccc(NC2CCC(N)C2)c(-c2nn[nH]n2)c1S(N)(=O)=O (stereo partly shown) at or over 8 in terms of pIC50?
Output: F

Task: Please tell me: is the compound "NS(=O)(=O)c1c(S(=O)(=O)N[C@@H]2CCNC2)ccc(N2CCCNC2=O)c1-c1nn[nH]n1" at or over 8 in terms of pIC50?
Output: T

Please examine the following record next.
Task: Please tell me: is the compound "CC1(O)CCN(c2ccc(S(=O)(=O)N[C@@H]3CCNC3)c(S(N)(=O)=O)c2-c2nnn[nH]2)CC1" at or over 8 in terms of pIC50?
Output: T

###

This section presents compounds with their documented pIC50 values.
target: VIM-1 (Pseudomonas aeruginosa (strain ATCC 15692 / DSM 22644 / CIP 104116 / JCM 14847 / LMG 12228 / 1C / PRS 101 / PAO1)); assay: biochemical; conditions: CCF2-FA fluorescence assay, 2 hours at 25° C.; read-out: VIM1 IC50
# pIC50 = -log10(concentration in molar units)

Consider the worked cases shown below.
Task: # lookup: pIC50 of N[C@@H]1CCCN(c2ccc(S(=O)(=O)C3CNC3)c(S(N)(=O)=O)c2-c2nnn[nH]2)C1 [Example 28]
Output: 7.43

Task: # lookup: pIC50 of NC[C@@H](O)CNS(=O)(=O)c1ccc(N2CCOC(CO)C2)c(-c2nn[nH]n2)c1S(N)(=O)=O (stereo partly drawn) [Example 20]
Output: 9.59

Task: # lookup: pIC50 of CN(C)CC1(O)CCN(c2ccc(S(=O)(=O)N[C@@H]3CCNC3)c(S(N)(=O)=O)c2-c2nnn[nH]2)CC1 [Example 100]
Output: 7.91

Task: # lookup: pIC50 of NS(=O)(=O)c1c(S(=O)(=O)N[C@@H]2CCNC2)ccc(N2CCN(CCO)CC2)c1-c1nnn[nH]1 [Example 102]
Output: 8.51

Task: # lookup: pIC50 of NCCNS(=O)(=O)C1CCN(c2ccc(S(=O)(=O)N[C@@H]3CCNC3)c(S(N)(=O)=O)c2-c2nn[nH]n2)CC1 [Example 167]
Output: 10.30

New cases:
Task: # lookup: pIC50 of NC[C@@H](O)CNS(=O)(=O)c1ccc(N2CCN3CCOCC3C2)c(-c2nn[nH]n2)c1S(N)(=O)=O (stereo partly drawn) [Example 129, 2,2,2-trifluoroacetate]
Output: 8.45

Task: # lookup: pIC50 of NS(=O)(=O)c1c(S(=O)(=O)C2CNC2)ccc(N2C[C@H](O)C[C@@H](O)C2)c1-c1nnn[nH]1 [Example 55]
Output: 7.21

Task: # lookup: pIC50 of NCCOC1CCN(c2ccc(S(=O)(=O)NC[C@H](O)CN)c(S(N)(=O)=O)c2-c2nn[nH]n2)CC1 [Example 209]
Output: 9.92

Task: # lookup: pIC50 of N[C@H]1CCCN(c2ccc(S(=O)(=O)N[C@@H]3CCNC3)c(S(N)(=O)=O)c2-c2nn[nH]n2)C1=O [Example 156]
Output: 8.67

Task: # lookup: pIC50 of N[C@@H]1CCN(c2ccc(S(=O)(=O)N[C@@H]3CCNC3)c(S(N)(=O)=O)c2-c2nn[nH]n2)C[C@@H]1F [Example 198]
Output: 9.70

Task: # lookup: pIC50 of NC1(CO)CCN(c2ccc(S(=O)(=O)N[C@@H]3CCNC3)c(S(N)(=O)=O)c2-c2nnn[nH]2)C1 (stereo partly drawn) [Example 84]
Output: 8.14
